Hello, the source for this data is PubChem BioAssay, in case you need it.

# Protocol Text: A549 cell viability effects, profiling panel, calcein-AM fluorescence, 48 h, basal (AID 1162); also: test concentration not given here
# Test Settings: higher = more signal
Reported Endpoint: z-score
Enter a number only.

get_value(item= O=C1OCCC=C[C@H]2OC34C=CCN(Cc5ccccc5)C(=O)[C@H]3N(CCO)C(=O)[C@@H]4C12 (stereo not given in full) , readout=z-score) returns -0.0905

get_value(item= `CCCC/C=C/[C@H]([C@@H](O)Cc1ccccc1)N(CC#Cc1ccccc1)Cc1ccccc1Br` , readout=z-score) returns 1.44

get_value(item= `CCOC(=O)C[C@H]1[C@H](OC(=O)Cc2ccc3c(c2)OCO3)[C@@H](NC(=O)c2ccc3ccccc3c2)c2cc(OCCCO)ccc2N1C(=O)Cc1ccc(OC)cc1` , readout=z-score) returns 1.55

get_value(item= O=C1C2C=CC(C(O)c3ccccc3)N(n3cnnc3)C2C(=O)N1Cc1ccccc1 (stereo not given) , readout=z-score) returns 0.668

get_value(item= `CCCNC(=O)[C@@H]1c2ccccc2C(=O)N(C2CCCCC2)[C@H]1c1ccc(CO)cc1` , readout=z-score) returns 0.285

get_value(item= `C=CC[C@@]12N=C(c3ccc(OCCCO)cc3)O[C@@H]1c1ccccc1CN(Cc1ccccc1)C2=O` , readout=z-score) returns -0.843

get_value(item= `CCOC(=O)C[C@H]1[C@H](OC(=O)c2ccccc2-c2ccccc2)[C@@H](NC(=O)C2CCCCC2)c2cc(OCCCO)ccc2N1C(=O)c1ccccc1` , readout=z-score) returns -0.675

get_value(item= Cc1ccccc1C(O)C1C=CC2C(=O)N(c3ccccc3)C(=O)C2N1Nc1ccc(C#N)cc1 (stereo not given) , readout=z-score) returns 0.916

get_value(item= CC(C)[C@H]1NC(=O)[C@@]23C(=O)N[C@@H](Cc4ccccc4)C2[C@H](C)[C@@]2(C)O[C@H]2C3/C=C/C/C=C\CNC(=O)[C@H](C)NC1=O (stereo not given in full) , readout=z-score) returns 0.011

get_value(item= `CO[C@H]1COC(=O)[C@H](C)NC(=O)CC=C[C@@H](C)[C@H](NS(=O)(=O)c2ccc(C)cc2)COC(=O)[C@@H](OCc2ccccc2)C=C[C@@H]1C` , readout=z-score) returns 0.0987

get_value(item= COC(=O)c1ccc(C#CC(NP(=O)(c2ccccc2)c2ccccc2)c2ccccc2)cc1 (stereo not given) , readout=z-score) returns -0.341

get_value(item= `O=C(NCC(F)(F)F)[C@@H]1c2ccccc2C(=O)N(Cc2ccccc2Cl)[C@H]1c1ccc(CO)cc1` , readout=z-score) returns 1.25

get_value(item= `CCOC(=O)C1=C[C@@H](c2ccccc2)N(S(=O)(=O)c2ccc(C)cc2)[C@H]1c1ccc(F)cc1` , readout=z-score) returns -1.39

get_value(item= CC(C)C[C@@H]1NC(=O)[C@H](CC(C)C)NC(=O)[C@@]23C(=O)N[C@@H](Cc4ccccc4)C2[C@H](C)[C@@]2(C)O[C@H]2C3/C=C/CC/C=C/CNC1=O (stereo not given in full) , readout=z-score) returns -0.422

get_value(item= `O=C1c2ccccc2[C@](Cc2ccccc2I)(C(=O)NCc2ccccc2)[C@H](c2ccc(CO)cc2)N1Cc1ccccc1C(F)(F)F` , readout=z-score) returns 0.582

get_value(item= `C=CCN1C(=O)[C@]2(O[C@H](CCn3cc(CCO)nn3)[C@@H]([Si](C)(C)c3ccc(OC)cc3)[C@@H]2C)c2cc(NC(=O)c3ccc(OC)cc3)ccc21` , readout=z-score) returns -0.423
